Recorded values, source patent US6441133B1.

Molecular target: TRHR-2 (Rattus norvegicus, UniProt A6IZR3)
Sequence (A6IZR3 1-352): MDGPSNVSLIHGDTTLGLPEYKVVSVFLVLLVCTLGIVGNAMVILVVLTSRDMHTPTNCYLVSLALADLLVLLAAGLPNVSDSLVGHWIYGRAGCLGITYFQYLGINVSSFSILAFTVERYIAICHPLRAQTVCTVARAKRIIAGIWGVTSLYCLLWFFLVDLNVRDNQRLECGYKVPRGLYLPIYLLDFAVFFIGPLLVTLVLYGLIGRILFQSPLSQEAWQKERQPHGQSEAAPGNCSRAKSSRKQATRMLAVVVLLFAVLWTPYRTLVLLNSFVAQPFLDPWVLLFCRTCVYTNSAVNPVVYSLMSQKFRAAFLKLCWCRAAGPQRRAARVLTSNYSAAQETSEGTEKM
Assay: 3H-TRH radioligand binding on whole HEK293s cells stably expressing TRHR-2
Conditions: read-out: Ki value to the TRHR-2 receptor
Where a SMILES comes first, the peptide text is derived from it. [ ]: non-standard residue; d: D form. pGlu = O=C1CC[C@@H](C(=O)O)N1
measurement name: Ki (nM)
Report the figure in nM without appending any unit label.

Input O=C(O)CNC(=O)[C@@H]1CCCN1C(=O)[C@H](Cc1c[nH]cn1)NC(=O)[C@@H]1CCC(=O)N1 [pGlu-His-Pro-Gly] ([pGlu]HPG-OH; C-terminus assumed) . Output Ki: 640

* * *

Biological target: Thyrotropin-releasing hormone receptor 2 (TRHR-2), rat, expressed in HEK293s cells from pCDNA3-TRHR2 (rat)
Sequence (chain, as listed by the source limits assumed): as the sequence (A6IZR3 1-352) above, with I143M counted along it
Test: competition with 3H-TRH tracer on whole cells, 293S/TRH-R clonal cell line
measurement name: pIC50
// field semantics: pIC50 = negative decimal log of concentration (mol/L)

Input Thyrotropin-releasing hormone (TRH), pGlu-His-Pro-amide, unlabelled (peptide) . Output pIC50: 8.08
